Values from ChEMBL document CHEMBL1201862

system: DU-145; assay: NCI tumour cell line growth inhibition, 48 h
Active and inactive are the calls of the source. No stated cut-off is given here; in the data, active = GI50 up to about 1.1 µM and inactive = higher.
Classes used: TRUE for active, FALSE for inactive

compound	assigned_label
CC(=O)c1[nH]c(NCc2ccccc2)c(C(=S)Nc2ccccc2)c1N	FALSE
CCc1n[nH]c(=O)n1/N=C/c1ccc(C)cc1	FALSE
OCC1OC(c2cccc3cc(O)c(O)cc23)CC1O (stereo not given)	FALSE
CCOC(=O)CC1c2ccc(O)cc2OC(=O)C1c1ccc([N+](=O)[O-])cc1 (stereo not given)	FALSE
C1=C(c2ccccc2)O[C@H](COCc2ccccc2)C(OCc2ccccc2)[C@@H]1OCc1ccccc1 (stereo not given in full)	FALSE
OC1C=C2C3CN(Cc4cc5c(cc43)OCO5)[C@H]2C[C@@H]1O (stereo not given in full)	FALSE
Cc1ccc(C(=O)Cc2nc3ncccc3[nH]c2=O)cc1	FALSE
N/C(=N\n1c(=S)[nH]c2ccccc2c1=O)Nn1c(=S)[nH]c2ccccc2c1=O	FALSE
CCOC(=O)/C(=C\c1c(C)[nH]c2ccccc12)P(=O)(OCC)OCC	FALSE
CCN(CC)c1ccc2cc(C(=O)Nc3ccccn3)c(=N)oc2c1	FALSE
Cc1c(Cl)c(C)c(Cl)c(O)c1Cl	FALSE
Cc1ccc(NC(=S)N/N=C(/c2ccccc2)c2ccccn2)cc1	TRUE
CC1(C)CC[C@]2(C(=O)O)[C@H](O)C[C@]3(C)C(=CC[C@@H]4[C@@]5(C)CC[C@H](OC6OC(C(=O)O)C(O)C(O)C6O)C(C)(C)[C@@H]5CC[C@]43C)[C@@H]2C1 (stereo not given in full)	FALSE
CCOC(CN(C)C(=O)OCC(Cl)(Cl)Cl)OCC	FALSE
N=c1[nH]cnc2c1nnn2C1C=CC(COS(N)(=O)=O)C1 (stereo not given)	FALSE
Cc1cc2c(cc1C)C(=O)/C(=N/Nc1ccc(F)cc1)CCO2	FALSE
C1=N\c2ccc(cc2)-c2ccc(cc2)/N=C\c2ccccc2OCc2cccc(n2)COc2ccccc2/1	FALSE
CC(=O)N(C(=O)CC(=O)NNCc1ccccc1Cl)c1ccc(Cl)cc1	FALSE
NCCN1CC2CCC(CC2)C1	FALSE
CN(C)/N=N/c1[nH]cnc1C(N)=O [DACARBAZINE]	FALSE
O=c1c2c3c(sc2nc2n1N=CN(c1ccccc1)C2)CCCC3	FALSE
CSC1SCC2C(=O)N(C)C3(CC3C)C(=O)OCC(NC(=O)c3nc4ccccc4cc3O)C(=O)NC(C)C(=O)N(C)C1C(=O)N(C)C1(CC1C)C(=O)OCC(NC(=O)c1nc3ccccc3cc1O)C(=O)NC(C)C(=O)N2C (stereo not given)	TRUE
C[C@]12CC/C(=N\OCCN3CCCC3)C=C1CCC1C2CC[C@@]2(C)C1CC[C@]2(C)O (stereo not given in full)	FALSE
O=C(O)[C@H](CCC[C@H]1C(=O)O[C@H](c2ccccc2)[C@H](c2ccccc2)N1C(=O)OCc1ccccc1)N[C@@H](c1ccccc1)[C@H](O)c1ccccc1	FALSE
Cc1ccc(C(=O)N(C2CCCCC2)C2CCCCC2)cc1/N=N/N(C)C	FALSE
CC(=O)OCC1OC(n2c(S)c(C#N)c(-c3ccccc3)c(C#N)c2=O)C(OC(C)=O)C(OC(C)=O)C1OC(C)=O (stereo not given)	FALSE
COC(=O)C(CNC(=O)/C=C/c1ccc(OC)c(OC)c1)NC(=O)/C=C/c1ccc(OC)c(OC)c1 (stereo not given)	FALSE
Cc1cn2cc(-c3cccs3)nc2s1	FALSE
CN(C)c1ccc(/C=N\NC(=O)CSCC(=O)N/N=C/c2ccc(N(C)C)cc2)cc1	FALSE
OCC(O)C(O)C(O)C1SC(c2ccccc2)=NN1c1ccccc1 (stereo not given)	FALSE
Cc1cc(C)nc(NS(=O)(=O)c2ccc(Nc3c4ccccc4nc4ccc(C(=O)Nc5ccc(S(=O)(=O)N=C(N)N)cc5)cc34)cc2)n1	FALSE
Cc1nc2c(nc1C)C(=O)c1ccccc1C2=O	FALSE
COc1c2c3c4c(c(OC)c(=O)c5c(O)cc(OC)c(c6c(OC)cc(O)c(c1=O)c63)c54)C(C(C)O)C2C(C)=O (stereo not given)	TRUE
O=[N+]([O-])c1ccc([I+]c2ccccc2)cc1	FALSE
COC(=O)c1ccccc1C1=C([N+](=O)[O-])C(c2ccccc2)C(C#N)=C(N)O1 (stereo not given)	FALSE
O=c1[nH][nH]c(=O)n1CCCCCCn1c(=O)[nH][nH]c1=O	FALSE
C/C(=N\Nc1ccc([N+](=O)[O-])cc1[N+](=O)[O-])c1sc(-n2nc(-c3ccccc3)cc2-c2ccccc2)nc1C	FALSE
COC(=O)c1sc(=S)sc1SCc1cccc(CSc2sc(=S)sc2C(=O)OC)c1	FALSE
O=C1c2c(F)c(F)c(F)c(F)c2SC2=Nc3cccc4cccc(c34)N12	FALSE
CC(=O)Nc1n[n+]([O-])c2cc(C)ccc2[n+]1[O-]	FALSE
